Recorded values, source the supplement of paper PMC9170038.

System: MS2 coat protein
Test: apparent KD of MS2 coat protein; designed switch direction (-1 OFF switch, 1 ON switch): -1; higher = weaker reporter binding
Conditions: Eterna round: R95; input ligand: FMN 200 uM

# item_sequence, units_text, apparent KD of MS2 coat protein
records = [
    ("UUUAAUUUUUUUUUUUUACAAGCUUUUUGCUCGUCUUAUACAUGAGGAUCACCCAUGUGGGUGAGAAGUAAAUUAUC [JMF 48] (puzzle: Sensor v3, turn-off variant 2)", "µM", 0.0637),
    ("UAUUAACAAGUAAGAUCCCACAUGAGGAUCACCCAUGUGCUCGUCUUAUAAGGUACUGUGACGAAAGUCACGGUACC [Sensor 3, v1 - 87] (puzzle: Sensor v3, turn-off variant 1)", "µM", 0.0169),
    ("GUAUGUUAUGAGGAUAUCGGUGAACAUACACAUCGAGAAGGCAUGACAUGAGGAUCACCCAUGUCAAGGAUGUA [Exclusion 6 - B - 18:b] (puzzle: Exclusion 6)", "µM", 0.0255),
    ("GGCCCUAAGGUCAGAUCCACAAGCUUUUUGCUCGUUUUAACAUGAGGAUCACCCAUGUCUAGUGGAUUUGAUCCUCU [Sensor v3, turn-off variant 2 (MOD of Indiso v.8)] (puzzle: Sensor v3, turn-off variant 2)", "µM", 0.0279),
    ("GGUACUAACACGAGAGUGUUAGUACUAUAAGCUUGUGUUACAUGAGGAUCACCCAUGUCCUCAUAGGCUCGUCUUAA [Mat - Sensor v3 - Turn-off var 2 - D81] (puzzle: Sensor v3, turn-off variant 2)", "µM", 0.0824),
    ("UCAAGCUUUAAGCGUGUGAACAUGAGGAUCACCCAUGUAUUUUUGGUUAGGAGUUCUGUAAGGGAUGCUCGUCUUAU [JR_SWV3TOV1_Sub093] (puzzle: Sensor v3, turn-off variant 1)", "µM", 0.0374),
    ("AAAUGUUCGGAGGAUAUAGAACGAUUGUCCGAGCUAGAAGGCCGAACAUGAGGAUCACCCAUGUGUACCUGAAA [Atmare] (puzzle: Exclusion 6)", "µM", 0.256),
    ("UAUAAUUUUUUUUUUUUACAAGCUUUUUGCUCGUCUUAUACAUGAGGAUCACCCAUGUGGGUGAAAGAUAGAUUGUC [JMF's solution 2] (puzzle: Sensor v3, turn-off variant 2)", "µM", 0.0377),
    ("UUUAUAAUUUCAAUCUUCGCCAGCAAACUAACACUGGCCACAUGAGGAUCACCCAUGUUUUUUGUUCGUUUUAUUCU [Cesoorso] (puzzle: Sensor v3, turn-off variant 2)", "µM", 0.0216),
    ("AAAUAACAAGCAAGAUCCUACAUGAGGAUCACCCAUGUGCUCGUCUUAAUAAGUACUAUCACGAAAGUGAUAGUACA [Mat - Sensor v3 - turn-off var 1 - Eli Mod - D60] (puzzle: Sensor v3, turn-off variant 1)", "µM", 0.383),
]

* * *

System: MS2 coat protein
Assay: apparent KD of MS2 coat protein; designed switch direction (-1 OFF switch, 1 ON switch): -1; higher = weaker reporter binding
Conditions: input ligand: none
Lab note: compare apparent KD of MS2 coat protein against 40 nM. Equal or greater, write Y. Smaller, write N.

# item_sequence, system_tested, assigned_class
records = [
    ("AAAUCACAUGAGGAUCACCCAUGUCAGGAUAUCGACUGAACAGCUUCGGCUGUUCAGUCGAGAAGGGACAAUUA [Brourdxlusion 1 - Jieux - Exclusion 1] (Eterna round: R97, puzzle: Exclusion 1)", "MS2 coat protein", "Y"),
    ("CAGCUGAAAGUGAGGAUAUCUAGAGCUGCGGCUCUAGAGAAGGCACAUGAGGAUCACCCAUGUCUCAACAGCUG [BmEx4/1-A3] (Eterna round: R97, puzzle: Brourd's mod of Exclusion 4)", "MS2 coat protein", "N"),
    ("AUAUAGCGAGGAUAUACAUGAGGAUCACCCAUGUGGUAGUAGAUACAGUAGAGAUAGAGUAGAAGGCGCUAUGA [EX3 #7] (Eterna round: R97, puzzle: Exclusion 3)", "MS2 coat protein", "Y"),
    ("AGGGUGGGAGGAUAUCCAAUAUAUGACAUGAGGAUCACCCAUGUUUCCACUCGUACCUCCGGAGAAGGCCCUCCCA [Ex5 #22] (Eterna round: R97, puzzle: Exclusion 5)", "MS2 coat protein", "N"),
    ("CCGACUCAAGGAUAUUGUACUGCUGACAUGAGGAUCACCCAUGUAUGUUAACUCGGCCGACGAGAAGGUGACGACA [BotMod 1 - Jieux - Exclusion 5] (Eterna round: R97, puzzle: Exclusion 5)", "MS2 coat protein", "Y"),
    ("AGUACUAUCACGAAAGUGAUAGUACAAUAAGCAAGUGAAACAUGAGGAUCACCCAUGUCCUCAUUUGCUCGUCUUAU [JL turnoff v2 74] (Eterna round: R96, puzzle: Sensor v2, turn-off variant 2)", "MS2 coat protein", "N"),
    ("UUGCCGCAAGGAUAUGCAGACAAGUACAAUACGUGUCUCGGACUUGAGGAUCACCCAAGUAGAAGGCUUUUUAU [LRO-Excl2-14-mod _r4_621 by salish99] (Eterna round: R97, puzzle: Exclusion 2)", "MS2 coat protein", "N"),
    ("AAGUCAACAUGAGGAUCACCCAUGUCCAAGUUGAUGUCCUGUGAGGAUAUGUGUAAACGGCCGGCACAGAAGGCACAAGACGCG [Eternabot solution 5] (Eterna round: R96, puzzle: Exclusion NG 3)", "MS2 coat protein", "N"),
    ("GUAGAGUCAGGAUAUACGAGAUCGAAAGAUCUUUGAUCCUAACAUGAGGAUCACCCAUGUAGAAGGGACUCUAC [Omei mod 3 to Eli's favorate candidate (ch.parushev)] (Eterna round: R97, puzzle: Exclusion 2)", "MS2 coat protein", "Y"),
    ("AGCCAUACAGGAUAUGCCCGGGAUAACAUGAGGAUCACCCAUGUGACCGAUUCAUGUCCUGCAGAAGGGUAUGGGA [Mod of ViennaUCT 3 - Jieux - Exclusion 5] (Eterna round: R97, puzzle: Exclusion 5)", "MS2 coat protein", "N"),
    ("GUUGUGUGAGGAUAUGCCUGGCCGUGAGGCCAGAUUGGGUGGCAGAAGGUACAUGAGGAUCACCCAUGUACGGG [salish99_ex4_4_005] (Eterna round: R97, puzzle: Exclusion 4)", "MS2 coat protein", "Y"),
    ("UCAGUUCUGCAAGGAUAUCGUCCUAGUUUGGUUCGAGAAGGUGCUUUUGUUUUUUCUUUGUGUUGACAUGAGGAUCACCCAUGU [JR_ExcNG1_Sub053] (Eterna round: R96, puzzle: Exclusion NG 1)", "MS2 coat protein", "N"),
    ("AGCUGUGGCCGAGGAUAUCCACAUGAGGAUCACCCAUGUGAAUACCCAAUUAAGGGAUAACCGUGGGAGAAGGCGGUCUCAGCA [Eli eng2 - 048] (Eterna round: R96, puzzle: Exclusion NG 2)", "MS2 coat protein", "Y"),
    ("UCCAAGCGGAAGCAAUGAAACAUGAGGAUCACCCAUGUCCCGGUGGUCAUUCACCCAAGCUUUUUGUAGUCAACCUU [Eternabot (L1) Solution 42] (Eterna round: R97, puzzle: Sensor, turn-off variant 1)", "MS2 coat protein", "Y"),
    ("UUAAAUCAUGUAGGAUAUGCGUGGCGAAGCUAUGCAGAAGGACAUGAGGAUCACCCAUGUUCUGCGGUCUGCGUACAGAUCGCA [JL ENG1 1.05] (Eterna round: R96, puzzle: Exclusion NG 1)", "MS2 coat protein", "Y"),
    ("UAAGAUUACCGAGGAUAUGCUGGUUUCUAUUAAGCAGAAGGCGGACUCAACAUGAGGAUCACCCAUGUAAGAAGGGUAUUAGAU [Ex NG1 #9] (Eterna round: R96, puzzle: Exclusion NG 1)", "MS2 coat protein", "Y"),
    ("GCGACACGAGGAUAUCGGGUCUCUAACAUGAGGAUCACCCAUGUGGCGGCAGGCGUAAGACGAGAAGGCGUAUUCA [Eternabot (L2) Solution 65] (Eterna round: R97, puzzle: Exclusion 5)", "MS2 coat protein", "N"),
    ("GCAGCAUAGAUAACAGUCUGAUACAUGAGGAUCACCCAUGUGCAGGAUAUGGUCUGGAUUACAGGCCAGAAGGGUACAAGCUGC [Eli exng3 - 015] (Eterna round: R96, puzzle: Exclusion NG 3)", "MS2 coat protein", "N"),
]

* * *

System: MS2 coat protein
Assay: apparent KD of MS2 coat protein; designed switch direction (-1 OFF switch, 1 ON switch): -1; higher = weaker reporter binding
Settings: Eterna round: R95; input ligand: none
Reported values of apparent KD of MS2 coat protein for individual entries
quantity_measured: apparent KD of MS2 coat protein (nM)

# item_sequence, units_text, measured_result
measured = [
    ("GGAUGGCGAGGAUAUACAUGAGGAUCACCCAUGUGAGAGAAAUAAGUGAGGAAGAAAAGUAGAAGGCGCAGACG [Mat - Exclusion 3 - Mod of Salish D45] (puzzle: Exclusion 3)", "nM", 53.1),
    ("GAGAAGGUAGGAUAUACGAAGAAAGAGGGUAGGAAGAAGACACAUGAGGAUCACCCAUGUAGAAGGACCAAGAG [Mat - Exclusion 2 - Mod of my Tesla design - D48] (puzzle: Exclusion 2)", "nM", 14.1),
    ("ACAAGCUUUGAGUUCGUCUUAUACACUCCUAAUAAGAAAACAUGAGGAUCACCCAUGUAAGAAAUAAGAACUCAUGU [Sesor Array 3 - Jieux - Sensor v3, turn-off variant 2] (puzzle: Sensor v3, turn-off variant 2)", "nM", 27.8),
]
